Molecular target: Metabotropic glutamate receptor 4 (Homo sapiens, UniProt Q14833)
Sequence (Q14833 whole entry): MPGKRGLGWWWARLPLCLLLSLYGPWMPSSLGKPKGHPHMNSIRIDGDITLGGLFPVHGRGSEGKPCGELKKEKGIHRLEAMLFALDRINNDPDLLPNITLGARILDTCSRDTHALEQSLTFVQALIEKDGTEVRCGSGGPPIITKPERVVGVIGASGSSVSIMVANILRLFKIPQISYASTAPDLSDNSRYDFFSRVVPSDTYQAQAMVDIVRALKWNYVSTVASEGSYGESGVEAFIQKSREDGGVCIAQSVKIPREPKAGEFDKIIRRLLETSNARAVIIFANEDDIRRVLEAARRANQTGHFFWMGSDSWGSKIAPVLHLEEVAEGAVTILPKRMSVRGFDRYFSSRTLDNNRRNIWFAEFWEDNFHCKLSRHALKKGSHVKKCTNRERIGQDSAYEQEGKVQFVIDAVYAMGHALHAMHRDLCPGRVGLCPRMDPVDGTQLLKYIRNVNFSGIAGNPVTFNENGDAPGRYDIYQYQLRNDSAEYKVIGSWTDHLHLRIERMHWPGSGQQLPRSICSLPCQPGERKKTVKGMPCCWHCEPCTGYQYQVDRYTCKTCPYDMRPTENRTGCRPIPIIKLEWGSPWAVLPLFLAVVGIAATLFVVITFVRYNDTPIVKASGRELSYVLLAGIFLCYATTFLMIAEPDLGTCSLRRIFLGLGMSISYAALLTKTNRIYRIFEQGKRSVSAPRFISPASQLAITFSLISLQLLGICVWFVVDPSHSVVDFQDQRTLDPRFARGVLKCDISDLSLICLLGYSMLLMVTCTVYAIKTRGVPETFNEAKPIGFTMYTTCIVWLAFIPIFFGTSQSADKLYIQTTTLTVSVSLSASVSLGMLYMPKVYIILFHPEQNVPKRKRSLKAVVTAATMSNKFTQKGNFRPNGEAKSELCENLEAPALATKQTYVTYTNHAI
Assay: Positive allosteric modulation of human mGlu4 receptor expressed in CHO cells assessed as potentiation of glutamate-induced calcium mobilization
Type: functional, cell-based
List of pEC50 values.
Lab note: report pEC50 as minus log10 of the concentration in molar units, number only.

# value of pEC50, Metabotropic glutamate receptor 4 (Homo sapiens, UniProt Q14833), item "CN(c1ccccc1Cl)S(=O)(=O)c1ccc(NC(=O)c2ccncn2)cc1" = 6.00

Lab entry: Metabotropic glutamate receptor 4 (Homo sapiens, UniProt Q14833) assay, compound "O=C(Nc1ccc(S(=O)(=O)NC2CCCCC2)cc1)c1ccccn1" , pEC50 = 5.99

Record "COc1ccccc1NS(=O)(=O)c1ccc(NC(=O)c2ccccn2)cc1OC" / Metabotropic glutamate receptor 4 (Homo sapiens, UniProt Q14833), pEC50 recorded as 6.88

This collection of values is drawn from ChEMBL document CHEMBL1221266.
